B1: Twa1 CTLH-CRA domain (58-190), wild type [mouse] / muskelin CTLH-CRA domain (205–735 Δ248–625) [rat] (parent)
chain 1: EHPMLTDMHDKLVLKGDFDACEELIEKAVNDGLFNQYISQQEYPSKDYLLRHCKYLIRKHRFEEKAQMDPLSALKYLQNDLYITVDHSDPEETKEFQLLASALFKSGSDFTALGFSDVDHTYAQRTQLFDTLVNFFPDSMTPPKGNLVDLITL
chain 2: SVDLETLDERIKIREMILKGQIQEAIALINSLHPELLDTNRYLYFHLQQQHLIELIRQRETEAALEFAQTQLAEQGEESRECLTEMERTLALLAFDSPEESPFGDLLHMMQRQKVWSEVNQAVLDYENRESTP

Variants of: B1
Assay Method Text: ITC
Condition Parameters: with muskelin CTLH-CRA domain (205–735 Δ248–625) [rat]; 160 µM muskelin + 16 µM Twa1 mutants
Measured Attribute: pKd
Numbers only, as −log10 of the molar value.

Problem: Any idea what its pKd is? The variant is chain 2 A68G Q69R A73Q L83K E87K L90F F95Y F103V
Result: 6.47
